- SYSTEM_TESTED: recombinant human androgen receptor (hAR) (Homo sapiens, UniProt P10275)
- Sequence (P10275 whole entry): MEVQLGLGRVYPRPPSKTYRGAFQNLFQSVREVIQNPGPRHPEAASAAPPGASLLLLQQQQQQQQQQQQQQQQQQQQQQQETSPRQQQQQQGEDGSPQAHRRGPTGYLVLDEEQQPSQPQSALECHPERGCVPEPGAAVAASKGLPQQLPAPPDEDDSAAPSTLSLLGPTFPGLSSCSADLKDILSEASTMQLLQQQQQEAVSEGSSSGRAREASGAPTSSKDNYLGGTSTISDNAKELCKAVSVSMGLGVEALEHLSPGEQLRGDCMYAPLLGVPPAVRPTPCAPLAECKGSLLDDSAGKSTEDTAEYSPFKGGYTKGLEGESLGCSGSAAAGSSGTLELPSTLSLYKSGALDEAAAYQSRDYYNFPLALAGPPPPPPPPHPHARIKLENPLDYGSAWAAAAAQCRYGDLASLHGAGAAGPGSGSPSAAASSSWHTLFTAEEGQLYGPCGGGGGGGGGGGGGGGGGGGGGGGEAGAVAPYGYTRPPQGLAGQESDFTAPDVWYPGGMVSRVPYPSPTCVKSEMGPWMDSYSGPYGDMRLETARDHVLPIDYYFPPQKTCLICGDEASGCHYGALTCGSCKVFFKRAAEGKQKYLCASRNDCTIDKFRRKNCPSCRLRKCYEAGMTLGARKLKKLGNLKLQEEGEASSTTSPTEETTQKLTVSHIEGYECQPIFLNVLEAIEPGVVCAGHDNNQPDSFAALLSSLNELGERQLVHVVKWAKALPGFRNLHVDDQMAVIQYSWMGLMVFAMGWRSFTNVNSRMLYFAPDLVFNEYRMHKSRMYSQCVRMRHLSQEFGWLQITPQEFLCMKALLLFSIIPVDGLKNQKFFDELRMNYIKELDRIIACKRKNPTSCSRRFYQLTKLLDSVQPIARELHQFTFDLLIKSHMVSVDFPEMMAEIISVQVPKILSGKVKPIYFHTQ
- PROTOCOL_SUMMARY: Human androgen receptor binding analysis (3H-DHT competitive binding)
Catalogue of compounds with associated IC50
Use nM as the unit, but write only the number.

> print(dat)
                        entry.smiles  units.text  endpoint.result
1         CCCN(CCC)c1ccc(C#N)c(Cl)c1          nM             8.33
2  CCCCCN(CC)c1ccc(C#N)c(C(F)(F)F)c1          nM             11.6

Shift focus to the following entry.
Identify IC50 associated with the compound CCCCN(CC)c1ccc(C#N)c(C(F)(F)F)c1
7.58

FYI, the data here is from patent US20080045504A1.
